Please provide measured protein stability index for the entries that follow.
B1: PLAGL1 (parent)
chain: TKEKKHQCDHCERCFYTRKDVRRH

variants of: B1; assay: protein stability index of a GFP-peptide fusion (GPS, HEK-293T) (PSI 1-6); higher = more stable; conditions: c terminus: a fixed tail appended;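 further: lentivirally expressed fusions sorted by FACS into six bins by GFP to DsRed ratio, PSI derived from sequencing read proportions per bin multiplied by bin number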

The examples below pair each entry with its known result.
# seq-text, protein stability index
data = [
    ("TKEKKHQCDHCERCFYTPKDVRRH [R18P]", 3.13),
    ("TKEKKHQCNHCERCFYTRKDVRRH [D9N]", 4.02),
]

Required: protein stability index, one value per variant below.
1. TKEKKHQCDSCERCFYTRKDVRRH [H10S]
2. TKRKKHQCDHCERCFYTRKDVRRH [E3R]
3. TKEKKHQCDHCERNFYTRKDVRRH [C14N]
4. TKEKKHVCDHCERCFYTRKDVRRH [Q7V]
5. TKEKKHQCDHCEGCFYTRKDVRRH [R13G]

Output line:
[3.68, 3.59, 3.25, 3.23, 3.25]
